Item-by-item account of IC50 in pSTAT3 assay (human PBMCs, 20 pM IL-21)
Target: recombinant human IL-21 (human, UniProt Q9HBE4 30-162, limits assumed)
Sequence (Q9HBE4 30-162 limits assumed, form in doubt): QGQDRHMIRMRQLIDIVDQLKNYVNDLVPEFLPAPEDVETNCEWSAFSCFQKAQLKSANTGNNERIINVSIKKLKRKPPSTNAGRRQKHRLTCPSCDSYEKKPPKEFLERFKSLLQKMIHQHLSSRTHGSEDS
Assay: cell-based or functional assay
Number in pM, nothing else.

Below: 6 binders and their reported IC50 in pSTAT3 assay (human PBMCs, 20 pM IL-21).
Binder	Assay value
murine monoclonal antibody 9F11 (antibody, V domains shown, also called 9F11.1) VH: EVELVESGGGLVQPGGSMKLSCAASGFTFSDAWMDWVRQSPEKGLEWVAEIRSEADNHPTYYAESVKGRFTISRDDSKSSVYLQMNSLRAEDSGIYYCTEYDYEGFVHWGQGTLVTVSA VL: DIVLTQSPASLAVSLGQRATISCRASKSVSTYGYSYMHWYQQKPGQPPKLLIYLASNLESGVPARFSGSGSGTDFTLNIHPVEEEDAATYYCQHSRELPLTFGAGTKLELK	21.7
murine monoclonal antibody 19E3 (antibody, V domains shown, also called 19E3.1) VH: QVQLQQPGSELVMPGASVKMSCKASGYIFTDYWMHWVKQRPGQGLEWIGTIDPSDNYTIYSQNFKGKATLTVDESSSTAYMLLSSLTSEDSAVYFCARYGFAMDYWGQGTSVTVSS VL: DIQLTQTTSSLSASLGDRVTISCRASQDISNFLNWYQQTPDGTVKLLIYYTSRLHSGVPSRFSGSGSGTDYSLTISNLEQEDIATYFCQQGHTLPRTFGGGTKLEIK	3.15
K44VHa-N56Q (MEDI7169) (antibody, V domains shown) VH: QVQLVQSGAEVKKPGASVKVSCKASGYTFTDYWMHWVRQAPGQGLEWMGTIDPSDQYTIYSQNFKGRVTMTRDTSTSTVYMELSSLRSEDTAVYYCARYGFAMDYWGQGTLVTVSS VL: DIQLTQSPSSLSASVGDRVTITCRASQDISNFLNWYQQKPGKAVKLLIYYTSRLHSGVPSRFSGSGSGTDYTLTISSLQPEDFATYYCQQGHTLPRTFGGGTKVEIK	17.2
9F11-11 (antibody, IgG1, V domains shown) VH: EVQLVESGGGLVQPGGSLRLSCAASGFTFSDAWMDWVRQAPGKGLEWVAEIRSEADNHPTYYAESVKGRFTISRDDSKNSLYLQMNSLKTEDTAVYYCTEYDYEGFVHWGQGTLVTVSS VL: DIVLTQTPLSLSVTPGQPASISCRASKSVSTYGYSYMHWYLQKPGQPPQLLIYLASNLESGVPDRFSGSGSGTDFTLKISRVEAEDVGVYYCQHSRELPLTFGQGTKLEIK	13.6
K2Ha-N56Q (antibody, human IgG1, kappa, V domains shown) VH: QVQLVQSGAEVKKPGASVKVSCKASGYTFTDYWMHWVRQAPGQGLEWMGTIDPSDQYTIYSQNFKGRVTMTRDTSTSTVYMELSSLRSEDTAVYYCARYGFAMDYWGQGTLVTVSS VL: DIQLTQSPSSLSASVGDRVTITCRASQDISNFLNWYQQKPGKAVKLLIYYTSRLHSGVPSRFSGSGSGTDYTLTISSLQPEDFATYFCQQGHTLPRTFGGGTKVEIKR	18.7
K44VHa6-N56Q (antibody, IgG1, V domains shown) VH: QVQLVQSGAEVKKPGASVKVSCKASGYTFTDYWMHWVRQAPGQGLEWMGTIDPSDQYTIYSQNFKGRVTMTVDESTSTVYMELSSLRSEDTAVYYCARYGFAMDYWGQGTLVTVSS VL: DIQLTQSPSSLSASVGDRVTITCRASQDISNFLNWYQQKPGKAVKLLIYYTSRLHSGVPSRFSGSGSGTDYTLTISSLQPEDFATYYCQQGHTLPRTFGGGTKVEIKR	5.5

Lookup: # return recorded IC50 in pSTAT3 assay (human PBMCs, 20 pM IL-21) for input 9F11-4 (antibody, IgG1, V domains shown) VH: EVQLVESGGGLVQPGGSLRLSCAASGFTFSDAWMDWVRQAPGKGLEWVAEIRSEADNHPTYYAESVKGRFTISRDDSKNSLYLQMNSLKTEDTAVYYCTEYDYEGFVHWGQGTLVTVSS VL: DIVMTQTPLSLSVTPGQPASISCRASKSVSTYGYSYMHWYLQKPGQPPQLLIYLASNLESGVPDRFSGSGSGTDFTLKISRVEAEDVGVYYCQHSRELPLTFGQGTKLEIK
Found: 12.1

Lookup: # return recorded IC50 in pSTAT3 assay (human PBMCs, 20 pM IL-21) for input murine monoclonal antibody 9H10 (antibody, V domains shown, also called 9H10.1) VH: EVQLQQFGAEVVKPGASVKMSCKASGYTFTDYNMNWVKQSHEKSLEWIGDIHPKFHSTNYNQKFKGKATLTIDTSSSTAYMELRNLTSEDTAVYYCARVGNYVYFVMDYWGQGTSVTVSS VL: SIVMTQTPKFLLVSAGDRVTITCKASQSVSNDVAWYQQKPGQSPKLLIYYASNRYTGVPDRFSGSGYGTDFTFTISTVQAEDLAVYFCQQDYTSPWTFGGGTKLEIK
Found: 328

Lookup: # return recorded IC50 in pSTAT3 assay (human PBMCs, 20 pM IL-21) for input 9F11-6 (antibody, IgG1, V domains shown) VH: EVQLVESGGGLVQPGGSLRLSCAASGFTFSDAWMDWVRQAPGKGLEWVAEIRSEADNHPTYYAESVKGRFTISRDDSKNSVYLQMNSLKTEDTAVYYCTEYDYEGFVHWGQGTLVTVSS VL: DIVMTQTPLSLSVTPGQPASISCRASKSVSTYGYSYMHWYLQKPGQPPQLLIYLASNLESGVPDRFSGSGSGTDFTLKISRVEAEDVGVYYCQHSRELPLTFGQGTKLEIK
Found: 13.2

Lookup: # return recorded IC50 in pSTAT3 assay (human PBMCs, 20 pM IL-21) for input murine monoclonal antibody 8B6 (antibody, V domains shown, also called 8B6.1) VH: EVQLVESGGGSVKPGGSLKLSCAASGLTFSHYYMYWVRQTPEKRLEWVAIISDGGDYTHYSDSVKGRFTISRDNAKNNLYLQMSSLQSEDTAMYYCAGDYGYGYEGWFAYWGQGTLVTVST VL: DIVMTQSQKFMSTSVGDRVSVTCKASQNVDTYVAWYQQKPGQSPKALIYSTSYRYSGVPDRFTGSGSGTDFTLTISNVQSEDLAEYFCQQYNSYPWTFGGGTKLEIK
Found: 115
